SYSTEM: Beta Secretase enzyme (BACE1) (Homo sapiens)
Sequence (P56817 46-501): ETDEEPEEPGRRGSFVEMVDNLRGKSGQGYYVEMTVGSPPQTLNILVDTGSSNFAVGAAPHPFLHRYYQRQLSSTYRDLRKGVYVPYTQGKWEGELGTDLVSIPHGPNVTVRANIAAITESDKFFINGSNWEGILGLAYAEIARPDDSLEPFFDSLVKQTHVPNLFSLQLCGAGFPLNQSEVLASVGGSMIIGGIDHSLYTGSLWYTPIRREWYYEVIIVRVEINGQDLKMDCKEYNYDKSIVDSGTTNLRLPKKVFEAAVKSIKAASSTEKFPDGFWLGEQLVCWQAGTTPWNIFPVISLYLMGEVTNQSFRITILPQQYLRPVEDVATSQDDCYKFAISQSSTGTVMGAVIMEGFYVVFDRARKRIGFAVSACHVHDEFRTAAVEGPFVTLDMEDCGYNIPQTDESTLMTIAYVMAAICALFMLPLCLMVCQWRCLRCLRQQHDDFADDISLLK
PROCEDURE_DETAILS: In vitro enzymatic BACE FRET assay
Assay type: biochemical
CONDITION_NOTES: average IC50, enzyme assay; read-out: BACE1 FRET assay IC50
PROPERTY_MEASURED: IC50 (nM)
# value in nM; strip the unit string

Answer with IC50 of CC1(C)C(N)=N[C@](C)(c2cc(Nc3ncnc4cc(C#N)cnc34)ccc2F)C(F)S1(=O)=O (some centres unmarked) [Example 229] measured for Beta Secretase enzyme (BACE1) (Homo sapiens).
1.01

Answer with IC50 of Cc1cc(C#N)cnc1C(=O)Nc1ccc(F)c([C@]2(C)CS(=O)(=O)[C@@](C)(F)C(N)=N2)c1 [Example 324] measured for Beta Secretase enzyme (BACE1) (Homo sapiens).
1.02

Answer with IC50 of CC#CCOc1cnc2c(Nc3ccc(F)c([C@]4(C)CS(=O)(=O)[C@@](C)(F)C(N)=N4)c3)nccc2c1 [Example 226] measured for Beta Secretase enzyme (BACE1) (Homo sapiens).
0.74

Answer with IC50 of CC#CCOc1cnc2c(Nc3ccc(F)c([C@]4(C)CS(=O)(=O)C(C)(C)C(N)=N4)c3)nccc2c1 [Example 254] measured for Beta Secretase enzyme (BACE1) (Homo sapiens).
0.6

Answer with IC50 of C[C@]1(F)C(N)=N[C@](C)(c2cc(Nc3ncnc4cc(C#N)cnc34)ccc2F)CS1(=O)=O [Example 180] measured for Beta Secretase enzyme (BACE1) (Homo sapiens).
1.1
